Test: Solubility in co-solvents (propylene glycol, ethanol)
Type: physicochemical
Conditions: propylene glycol/ethanol co-solvent mixture, aqueous with cosolvent or surfactant or cyclodextrin, thermodynamic from solid, 75% PG, 10% EtOH, no pH adjustment, 25° C., pH 7.3, read-out: S (solubility)
measure.name: solubility at 12 d
Kindly write the number and append the unit.

Reported solubility at 12 d of CNc1cc2[nH]c(=O)n(-c3ccc(NC(=O)NS(=O)(=O)c4ccc(Cl)s4)cc3)c(=O)c2cc1F [Elinogrel potassium (Form B)] : 21 mg/mL

----------
Assay: Kinetic solubility in liquid formulation containing mannitol and glycine buffer
Format: physicochemical
Conditions: IV vehicle: 50 mM glycine sodium, 4% mannitol, pH 8.8, aqueous buffer, thermodynamic from solid, RT, pH 8.8, Day 4
measure.name: solubility kinetic at 4 day (µg/mL)
State the answer as a number, implicitly in µg/mL.

Reported solubility kinetic at 4 day of CNc1cc2[nH]c(=O)n(-c3ccc(NC(=O)NS(=O)(=O)c4ccc(Cl)s4)cc3)c(=O)c2cc1F [Elinogrel potassium (Form C)] : 2150

----------
Assay: Kinetic solubility in liquid formulation containing mannitol and glycine buffer
Format: physicochemical
Details: IV vehicle: 50 mM glycine sodium, 4% mannitol, pH 8.8, aqueous buffer, thermodynamic from solid, RT, pH 8.8, Day 5
measure.name: solubility kinetic at 5 day (mg/mL)
State the answer as a number, implicitly in mg/mL.

Reported solubility kinetic at 5 day of CNc1cc2[nH]c(=O)n(-c3ccc(NC(=O)NS(=O)(=O)c4ccc(Cl)s4)cc3)c(=O)c2cc1F [Elinogrel potassium (Form C)] : 1.45

----------
Assay: Kinetic solubility in liquid formulation containing mannitol and glycine buffer
Format: physicochemical
Details: IV vehicle: 50 mM glycine sodium, 4% mannitol, pH 9, aqueous buffer, thermodynamic from solid, RT, pH 9, Day 4
measure.name: solubility kinetic at 4 day (µg/mL)
State the answer as a number, implicitly in µg/mL.

Reported solubility kinetic at 4 day of CNc1cc2[nH]c(=O)n(-c3ccc(NC(=O)NS(=O)(=O)c4ccc(Cl)s4)cc3)c(=O)c2cc1F [Elinogrel] : 2650

----------
Experiment: Thermodynamic solubility at different pH at 37° C.
Type: physicochemical
Conditions: aqueous slurry, pH adjusted with NaOH or HCl, aqueous buffer, thermodynamic from solid, pH 6.61
measure.name: solubility thermodynamic at 3 days (µg/mL)
State the answer as a number, implicitly in µg/mL.

Reported solubility thermodynamic at 3 days of CNc1cc2[nH]c(=O)n(-c3ccc(NC(=O)NS(=O)(=O)c4ccc(Cl)s4)cc3)c(=O)c2cc1F [Elinogrel] : 2.17

----------
Assay: pKa, logP and logD of Elinogrel
Format: physicochemical
measure.name: pKa

Reported pKa of CNc1cc2[nH]c(=O)n(-c3ccc(NC(=O)NS(=O)(=O)c4ccc(Cl)s4)cc3)c(=O)c2cc1F [Elinogrel] : ~3.3

----------
Test: Thermodynamic solubility at different pH at 37° C.
Type: physicochemical
Details: aqueous slurry, aqueous buffer, thermodynamic from solid, pH 3.00
measure.name: solubility thermodynamic at 3 days (µg/mL)
State the answer as a number, implicitly in µg/mL.

Reported solubility thermodynamic at 3 days of CNc1cc2[nH]c(=O)n(-c3ccc(NC(=O)NS(=O)(=O)c4ccc(Cl)s4)cc3)c(=O)c2cc1F [Elinogrel] : 0.057

----------
Assay: Thermodynamic solubility at different pH at 37° C.
Type: physicochemical
Settings: aqueous slurry, aqueous buffer, thermodynamic from solid, pH 8.11
measure.name: solubility thermodynamic at 3 days (µg/mL)
State the answer as a number, implicitly in µg/mL.

Reported solubility thermodynamic at 3 days of `CNc1cc2[nH]c(=O)n(-c3ccc(NC(=O)NS(=O)(=O)c4ccc(Cl)s4)cc3)c(=O)c2cc1F` : 418
